- method description: Pharmacokinetic profile, IV and oral (Assay 16)
- Type: in vivo
- experimental conditions: rat, plasma, po, 30 mg/kg, PO 30 mg/Kg, individual rats, read-out: Tmax (converted)
attribute measured: Tmax (min)
Field format: number, assumed min, no unit text.

Entry `O=C(NCCc1c[nH]cn1)c1ccc2c(Cl)cc(Cl)c(O)c2n1` needs its Tmax filled in; supply it.
45

Entry `CN(C)Cc1ccc2c(Cl)cc(Cl)c(O)c2n1.Cl` needs its Tmax filled in; supply it.
45

Entry `CCNCc1ccc2c(Cl)cc(Cl)c(O)c2n1.Cl` needs its Tmax filled in; supply it.
60

----------
Below: a set of entries, each annotated with reported solubility.
- method description: Turbidimetric solubility measurements (Assay 13)
- Assay type: physicochemical
- experimental conditions: aqueous buffer, kinetic from dmso stock; pH 6.5 isotonic phosphate buffer, 1% DMSO, nephelometry; read-out: Solubility pH 6.5
- Protocol: Turbidimetric Solubility Measurements The solubility estimate was measured at both pH 2.0 and pH 6.5. This is within the pH range that can be anticipated along the proximal gastrointestinal tract in humans. The compounds were dissolved in DMSO to appropriate concentrations and then spiked into either 0.01M HCl (approx. pH=2.0) or pH 6.5 isotonic phosphate buffer, the final DMSO concentration being 1%. Samples were then analysed via Nephelometry to determine a solubility range. […]

>>> measured_result("Cn1cnc(CCNC(=O)c2ccc3c(Cl)cc(Cl)c(O)c3n2)c1")
"12.5 to 25 µg/mL"
>>> measured_result("O=C(NCCc1c[nH]cn1)c1ccc2c(Cl)cc(Cl)c(O)c2n1")
"12.5 to 25 µg/mL"
>>> measured_result("CN(C)Cc1ccc2c(Cl)cc(Cl)c(O)c2n1.Cl")
"3.1 to 6.2 µg/mL"
>>> measured_result("CCNCc1ccc2c(Cl)cc(Cl)c(O)c2n1.Cl")
"< 3.1 µg/mL"

Attention now shifts to the item below.
Entry `Oc1c(Cl)cc(Cl)c2ccc(-c3ccccn3)nc12` needs its solubility filled in; supply it.
< 3.1 µg/mL

The reported numbers originate from patent US9302993B2.
